# System: SW480
# measurement_protocol: Cytotoxicity against human SW480 cells after 3 days by SRB assay
# Assay type: functional, cell-based
# protocol_conditions: SW480, 72 h
quantity_name: pIC50
Just the number, please; pIC50 means minus log10 of the concentration in mol/L.

Identify measured pIC50 associated with C=C1CC[C@@H]2[C@](C)(CCC[C@]2(C)C(=O)OC)[C@H]1Cc1c(C)ccc2c1C(=O)C=CC2=O
6.04

Identify measured pIC50 associated with O=c1[nH]cc(F)c(=O)[nH]1
5.43

* * *

Consider the following compounds; for each one, report its pIC50.
# System: T47D
# measurement_protocol: Cytotoxicity against human T47D cells after 3 days by SRB assay
# Assay type: functional, cell-based
# protocol_conditions: 72 h
Just the number, please; pIC50 means minus log10 of the concentration in mol/L.

Identify measured pIC50 associated with O=c1[nH]cc(F)c(=O)[nH]1 [FLUOROURACIL]
4.98

Identify measured pIC50 associated with C=C1CC[C@@H]2[C@](C)(CCC[C@]2(C)C(=O)OC)[C@H]1Cc1c(C)ccc2c1C(=O)C=CC2=O
6.20

* * *

# measurement_protocol: Therapeutic index, ratio of IC50 for human CCD-18Co cells to IC50 for human SW480 cells
# Assay type: cell-based
# protocol_conditions: CCD-18Co cells versus SW480 cells, read-out: Ratio IC50
Consider the following compounds; for each one, report its selectivity ratio.
Reply with the value as a number alone.

Identify measured selectivity ratio associated with O=c1[nH]cc(F)c(=O)[nH]1 [FLUOROURACIL]
2.51

Identify measured selectivity ratio associated with C=C1CC[C@@H]2[C@](C)(CCC[C@]2(C)C(=O)OC)[C@H]1Cc1c(C)ccc2c1C(=O)C=CC2=O
0.36

* * *

Consider the following compounds; for each one, report its selectivity ratio.
# measurement_protocol: Therapeutic index, ratio of IC50 for human MCF10A cells to IC50 for human T47D cells
# Type: cell-based, MCF-10A
# protocol_conditions: MCF10A cells versus T47D cells, read-out: Ratio IC50

Identify measured selectivity ratio associated with C=C1CC[C@@H]2[C@](C)(CCC[C@]2(C)C(=O)OC)[C@H]1Cc1c(C)ccc2c1C(=O)C=CC2=O
5

Identify measured selectivity ratio associated with O=c1[nH]cc(F)c(=O)[nH]1 [FLUOROURACIL]
0.76

* * *

# measurement_protocol: Therapeutic index, ratio of IC50 for human MCF10A cells to IC50 for human MCF7 cells
# Assay type: cell-based, MCF-10A
# protocol_conditions: MCF10A cells versus MCF7 cells, read-out: Ratio IC50
Consider the following molecules; for each one, report its selectivity ratio.
Reply with the value as a number alone.

Identify measured selectivity ratio associated with C=C1CC[C@@H]2[C@](C)(CCC[C@]2(C)C(=O)OC)[C@H]1Cc1c(C)ccc2c1C(=O)C=CC2=O
9

Identify measured selectivity ratio associated with O=c1[nH]cc(F)c(=O)[nH]1
2.82

* * *

Consider the following molecules; for each one, report its selectivity ratio.
# measurement_protocol: Therapeutic index, ratio of IC50 for human CCD-18Co cells to IC50 for human RKO cells
# Type: cell-based
# protocol_conditions: CCD-18Co cells versus RKO cells, read-out: Ratio IC50
Reply with the value as a number alone.

Identify measured selectivity ratio associated with O=c1[nH]cc(F)c(=O)[nH]1
2.11

Identify measured selectivity ratio associated with C=C1CC[C@@H]2[C@](C)(CCC[C@]2(C)C(=O)OC)[C@H]1Cc1c(C)ccc2c1C(=O)C=CC2=O
0.56

* * *

# measurement_protocol: Therapeutic index, ratio of IC50 for human MCF10A cells to IC50 for mouse E0771 cells
# Format: cell-based, MCF-10A
# protocol_conditions: MCF10A cells versus E0771 cells, read-out: Ratio IC50
quantity_name: selectivity ratio

Identify measured selectivity ratio associated with O=c1[nH]cc(F)c(=O)[nH]1
28.8

Identify measured selectivity ratio associated with C=C1CC[C@@H]2[C@](C)(CCC[C@]2(C)C(=O)OC)[C@H]1Cc1c(C)ccc2c1C(=O)C=CC2=O
8.08
